target under test: UniProtKB P10636
measurement description: MCE Phenols Library screening, tau biosensor cell seeding assay (AvZ)
Type: cell-based
experimental conditions: average Z score of the two replicates, MCE Phenols Library screen
quantity name: av Z
Form field (numeric): enter value without unit.

query: I have this compound here, CC1OC(OCC2OC(Oc3c(-c4ccc(O)cc4)oc4cc(OC5OC(C)C(O)C(O)C5O)cc(O)c4c3=O)C(O)C(O)C2O)C(O)C(O)C1O (stereo not drawn) [Robinin] , and I need its recorded av Z.
result: -0.411

query: Same question, OC[C@H]1O[C@@H](Oc2cc3c(O)cc(O)cc3[o+]c2-c2ccc(O)c(O)c2)[C@H](O)[C@@H](O)[C@H]1O.[Cl-] [Cyanidin-3-O-galactoside (chloride)] this time
result: -1.347

query: Same question, O=C(O[C@H]1[C@H](Oc2c(-c3ccc(O)c(O)c3)oc3cc(O)cc(O)c3c2=O)O[C@H](CO)[C@H](O)[C@@H]1O)c1cc(O)c(O)c(O)c1 [2""-O-Galloylhyperin] this time
result: -0.873

query: Same question, COc1cc2c(cc1O)C[C@H]1c3cc(O)c(OC)cc3CC[N@@+]1(C)C2.[Cl-] [Phellodendrine (chloride)] this time
result: -0.208

query: Same question, Oc1cc(O)c2cc(O)c(-c3cc(O)c(O)c(O)c3)[o+]c2c1.[Cl-] [Delphinidin (chloride)] this time
result: -1.417

query: Same question, O=C1c2c(O)cc(O)cc2O[C@H](c2cc(O)c(O)c(O)c2)[C@H]1O [Dihydromyricetin] this time
result: -1.115

query: Same question, COc1c(O)cc2oc(-c3ccccc3)cc(=O)c2c1O [Oroxylin A] this time
result: -0.217

query: Same question, O=c1cc(-c2ccccc2)oc2cc(O[C@@H]3O[C@H](CO[C@@H]4O[C@H](CO)[C@@H](O)[C@H](O)[C@H]4O)[C@@H](O)[C@H](O)[C@H]3O)c(O)c(O)c12 [Oroxin B] this time
result: -0.573

query: Same question, COc1ccc(/C=C/C(=O)C(C)(C)C(=O)/C=C/c2ccc(OC)c(OC)c2)cc1OC [Tetramethylcurcumin] this time
result: -1.014

query: Same question, Cc1cc(O)c(C)c2c1O[C@](C)(CCC[C@H](C)CCC[C@H](C)CCCC(C)C)CC2 [?-Tocopherol] this time
result: -0.365

query: Same question, Cc1cc(=O)oc2cc(O)ccc12 [4-Methylumbelliferone] this time
result: -0.639

query: Same question, `O=c1c(O[C@@H]2O[C@H](CO)[C@@H](O)[C@H](O)[C@H]2O)c(-c2ccc(O)c(O)c2)oc2cc(O[C@@H]3O[C@H](CO[C@@H]4O[C@H](CO)[C@@H](O)[C@H](O)[C@H]4O)[C@@H](O)[C@H](O)[C@H]3O)cc(O)c12` this time
result: -0.498

query: Same question, O=C(O[C@@H]1Cc2c(O)cc(O)cc2O[C@H]1c1ccc(O)c(O)c1)c1cc(O)c(O)c(O)c1 [(-)-Catechin gallate] this time
result: -0.843

query: Same question, O.O.O=c1c(O)c(-c2ccc(O)c(O)c2)oc2cc(O)cc(O)c12 [Quercetin (dihydrate)] this time
result: -1.361

query: Same question, O=C(O[C@H](Cc1ccc(O)c(O)c1)C(=O)O)C1=Cc2cc(O)c(O)cc2[C@H](c2ccc(O)c(O)c2)[C@H]1C(=O)OC(Cc1ccc(O)c(O)c1)C(=O)O (stereo in doubt) [Rabdosiin] this time
result: -0.346

query: Same question, C[C@@H]1O[C@@H](Oc2c(-c3ccc(O)c(O)c3)oc3cc(O)cc(O)c3c2=O)[C@H](O)[C@H](O)[C@H]1O [Quercitrin] this time
result: -0.209

query: Same question, CC(C)=CCc1c2c(c(O)c3c1O[C@]14C(=C[C@@H]5C[C@H]1C(C)(C)O[C@@]4(C/C=C(/C)C(=O)O)C5=O)C3=O)C=CC(C)(C)O2 [Morellic acid] this time
result: -0.621

query: Same question, O=C(/C=C/c1ccc(O)c2c1[C@H](C(=O)O)[C@@H](c1ccc(O)c(O)c1)O2)O[C@H](Cc1ccc(O)c(O)c1)C(=O)O [Lithospermic acid] this time
result: -1.085

---

Can you tell me av puncta for the items I'm about to list?
target under test: tau (Homo sapiens)
measurement description: MCE Phenols Library screening, tau biosensor cell seeding assay (AvZ)
Format: cell-based
experimental conditions: average puncta of the two replicates
Form field (numeric): enter value without unit.

query: I have this compound here, Oc1cc(O)c2c(c1)O[C@@]1(c3ccc(O)c(O)c3)Oc3cc(O)c4c(c3[C@@H]2[C@H]1O)O[C@H](c1ccc(O)c(O)c1)[C@H](O)C4 [Procyanidin A2] , and I need its recorded av puncta.
result: 11465

query: Same question, COc1cc(/C=C/C(=O)OCC[N+](C)(C)C)cc(OC)c1O [Sinapine] this time
result: 12156.4

query: Same question, O=C(O)c1ccccc1O [Salicylic acid, reference compound] this time
result: 13372.8

query: Same question, COc1cc(-c2oc3cc(O)cc(O)c3c(=O)c2O[C@@H]2O[C@H](CO[C@@H]3O[C@@H](C)[C@H](O)[C@@H](O)[C@H]3O)[C@@H](O)[C@H](O)[C@H]2O)ccc1O [Narcissin] this time
result: 17563.5

query: Same question, CC(C)=CC[C@@H](OC(=O)CC(C)(C)O)C1=CC(=O)c2c(O)ccc(O)c2C1=O [?-Hydroxyisovalerylshikonin] this time
result: 11543.5

query: Same question, CCCCCCCCC/C=C/C(=O)CCc1ccc(O)c(OC)c1 [[10]-Shogaol] this time
result: 13509

query: Same question, O=C1C=CC(=O)c2c(O)ccc(O)c21 [Naphthazarin] this time
result: 14154.5

query: Same question, O=C1c2c(O)cccc2C([C@@H]2O[C@H](CO)[C@@H](O)[C@H](O)[C@H]2O)c2cc(CO)cc(O)c21 (stereo partly shown) [Aloin(mixture of A&B)] this time
result: 15768.9

query: Same question, O=C(CCc1ccc(O)c(O)c1)NCCCNCCCCNCCCNC(=O)CCc1ccc(O)c(O)c1 [Kukoamine A] this time
result: 13541.2

query: Same question, COc1cc2oc3cc(O)c(OC)c(CC=C(C)C)c3c(=O)c2c(O)c1CC=C(C)C [beta-Mangostin] this time
result: 17083.5

query: Same question, O=c1oc2cc(O)ccc2c2cc(O)c(O)cc12 [Urolithin C] this time
result: 13342.4

query: Same question, O=C(O)c1ccc(O)c(O)c1 [Protocatechuic acid] this time
result: 12912.5

query: Same question, COc1cc(CNC(=O)CCCC/C=C/C(C)C)ccc1O [Capsaicin, reference compound] this time
result: 16179.6

query: Same question, O=c1ccoc2cc(O)cc(O)c12 [5,7-Dihydroxychromone] this time
result: 10800.5

query: Same question, COc1cc(O)c(C(=O)/C=C/c2ccc(O)cc2)c(OC)c1 [Flavokawain C] this time
result: 14614.7

query: Same question, CC(=O)NCCc1c[nH]c2ccc(O)cc12 [N-Acetyl-5-hydroxytryptamine] this time
result: 17233.8

query: Same question, O=C(CCc1ccc(O)cc1)c1c(O)cc(O)cc1O [Phloretin] this time
result: 11860.9

query: Same question, COc1c(O[C@@H]2O[C@H](C(=O)O)[C@@H](O)[C@H](O)[C@H]2O)cc(O)c2c(=O)cc(-c3ccccc3)oc12 [Wogonoside] this time
result: 15284.9

query: Same question, CC(=O)Oc1ccc(/C=C/c2cc(OC(C)=O)cc(OC(C)=O)c2)cc1 [Triacetylresveratrol] this time
result: 13396.5

query: Same question, COc1cc(-c2oc3cc(O)cc(O)c3c(=O)c2O)ccc1O [Isorhamnetin] this time
result: 16840.7

query: Same question, O=C(O)CC(O)(CC(=O)OCc1ccc(O[C@@H]2O[C@H](CO)[C@@H](O)[C@H](O)[C@H]2O)cc1)C(=O)O (stereo partly shown) [Parishin E] this time
result: 12158.4

query: Same question, O=c1c(O[C@@H]2O[C@H](CO)[C@@H](O)[C@H](O)[C@H]2O[C@@H]2O[C@H](CO)[C@@H](O)[C@H](O)[C@H]2O)c(-c2ccc(O)cc2)oc2cc(O)cc(O)c12 [Kaempferol 3-O-sophoroside] this time
result: 16225.3

---

target under test: tau (Homo sapiens, UniProt P10636)
Sequence (P10636 623-695 limits assumed): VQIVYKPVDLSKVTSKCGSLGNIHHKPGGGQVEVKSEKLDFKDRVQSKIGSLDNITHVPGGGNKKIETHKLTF
measurement description: MCE Phenols Library screening, tau biosensor cell seeding assay (AvZ)
Format: cell-based
experimental conditions: puncta, replicate 1
quantity name: raw data 1
Form field (numeric): enter value without unit.

query: I have this compound here, `Oc1cc2c(cc1O)[C@@H]1c3ccc(O)c(O)c3OC[C@]1(O)C2` , and I need its recorded raw data 1.
result: 5936.96

query: Same question, `CC(=O)O[C@@H](CC=C(C)C)C1=CC(=O)c2c(O)ccc(O)c2C1=O` this time
result: 17242.7

query: Same question, `O=C(O[C@@H]1O[C@@H]2COC(=O)c3cc(O)c(O)c(O)c3-c3c(cc(O)c(O)c3O)C(=O)O[C@H]([C@H]1O)[C@@H]2O)c1cc(O)c(O)c(O)c1` this time
result: 4240.16

query: Same question, `O=c1c(O)c(-c2cc(O)c(O)c(O)c2)oc2cc(O)ccc12` this time
result: 20360.8

query: Same question, `COc1ccc(-c2oc3cc(O)cc(O)c3c(=O)c2O)cc1O` this time
result: 22060

query: Same question, `COc1ccc(C(=O)O)cc1O` this time
result: 29328.9

query: Same question, `CC(C)(O)CCc1c(O)cc(O)c2c(=O)c(O)c(-c3ccc(O)cc3)oc12` this time
result: 33071.8

query: Same question, `C[C@]12CC[C@@H]3c4ccc(O)cc4CC[C@H]3[C@@H]1C[C@@H](O)[C@@H]2O` this time
result: 26418.8

query: Same question, `C[C@@H]1O[C@@H](OC[C@H]2O[C@@H](Oc3c(-c4ccc(OCCO)c(OCCO)c4)oc4cc(OCCO)cc(O)c4c3=O)[C@H](O)[C@@H](O)[C@@H]2O)[C@H](O)[C@H](O)[C@H]1O` this time
result: 22246.4

query: Same question, `O=c1cc(-c2ccc(O)c(O)c2)oc2cc(O)c([C@@H]3O[C@H](CO)[C@@H](O)[C@H](O)[C@H]3O)c(O)c12` this time
result: 34846.9

query: Same question, O=Cc1c[nH]c2cccc(O)c12 [4-Hydroxy-1H-indole-3-carbaldehyde] this time
result: 32475.1

query: Same question, CC(=O)c1ccc(O)c(O)c1 [3',4'-Dihydroxyacetophenone] this time
result: 22292.7

query: Same question, `Oc1ccc2c(c1)OCO2` this time
result: 26133.2

query: Same question, O=C(O)CCc1cccc(O)c1 [3-(3-Hydroxyphenyl)propionic acid] this time
result: 39805

query: Same question, `CC1=CC(=O)c2c(O)cccc2C1=O` this time
result: 1092.19

query: Same question, `C#C[C@]1(O)CC[C@H]2[C@@H]3CCc4cc(O)ccc4[C@H]3CC[C@@]21C` this time
result: 33285.2

query: Same question, Nc1ccc(O)c(C(=O)O)c1 [5-Aminosalicylic Acid, reference compound] this time
result: 19721.7

query: Same question, CC(=O)OCCc1ccc(O)c(O)c1 [Hydroxytyrosol acetate] this time
result: 26308.5

query: Same question, `COc1cc(O)cc(O)c1C(=O)/C=C/c1ccccc1` this time
result: 21621.9

query: Same question, OC[C@H]1O[C@@H](Oc2cc3c(O)cc(O)cc3[o+]c2-c2ccc(O)c(O)c2)[C@H](O)[C@@H](O)[C@H]1O.[Cl-] [Cyanidin-3-O-galactoside (chloride)] this time
result: 4573.89

query: Same question, `COc1cc(O)c2c(=O)c3c(O[C@@H]4O[C@H](CO)[C@@H](O)[C@H](O)[C@H]4O)ccc(O)c3oc2c1` this time
result: 24974.7

query: Same question, COC(=O)c1ccccc1O [Methyl Salicylate] this time
result: 24825.4

query: Same question, `Oc1cc(O)c2c(c1)O[C@H](c1ccc(O)c(O)c1)[C@@H](O)C2` this time
result: 19846.5
